- assayRemarks: folding enthalpy; higher = less favourable; fluorescence melt of hairpins on a sequencing array, two-state fit
- experimentalConditions: sodium 0.088 M
experimentalReadout: folding enthalpy (kcal/mol)
Your answer should be a plain number; it is taken to be in kcal/mol.

Task: Specify measured folding enthalpy for GGTTGCGAAAGCAAACC ((((((....))).))) .
Result: -20

Task: Specify measured folding enthalpy for GCGTGAGGACGC ((((....)))) .
Result: -18.9

Task: Specify measured folding enthalpy for GCGAAGCGAAAGCTCCGC (((.(((....))).))) .
Result: -36.7

Task: Specify measured folding enthalpy for CGCGGACCTCTCCGCG ((((((....)))))) .
Result: -31.9

Task: Specify measured folding enthalpy for GATCTGCTCCCAGATC ((((((....)))))) .
Result: -37.1

Task: Specify measured folding enthalpy for GCGCGGCGAAAGCCAGGC ((..(((....)))..)) .
Result: -14.1

Task: Specify measured folding enthalpy for GTTGACGGAAACGTTAAC (((.(((....))).))) .
Result: -27

Task: Specify measured folding enthalpy for GTAATCGAAAGATTCTAC ((((((....)))..))) .
Result: -18.5

Task: Specify measured folding enthalpy for GCGAAAGCTCGC ((((....)))) .
Result: -11

Task: Specify measured folding enthalpy for GCGATGGTCGC ((((...)))) .
Result: -7.34

Task: Specify measured folding enthalpy for GGCTGCGAAAGCACCGCC ((((((....)))..))) .
Result: -20.7

Task: Specify measured folding enthalpy for GGGTCCGAAAGGATACCC ((((((....)))..))) .
Result: -20.1

Task: Specify measured folding enthalpy for GATCACGGGCGTGATC ((((((....)))))) .
Result: -40.4
